system: Prostaglandin G/H synthase 1 (Rattus norvegicus, UniProt Q63921); also: assay procedure not described here
Sequence (Q63921 whole entry): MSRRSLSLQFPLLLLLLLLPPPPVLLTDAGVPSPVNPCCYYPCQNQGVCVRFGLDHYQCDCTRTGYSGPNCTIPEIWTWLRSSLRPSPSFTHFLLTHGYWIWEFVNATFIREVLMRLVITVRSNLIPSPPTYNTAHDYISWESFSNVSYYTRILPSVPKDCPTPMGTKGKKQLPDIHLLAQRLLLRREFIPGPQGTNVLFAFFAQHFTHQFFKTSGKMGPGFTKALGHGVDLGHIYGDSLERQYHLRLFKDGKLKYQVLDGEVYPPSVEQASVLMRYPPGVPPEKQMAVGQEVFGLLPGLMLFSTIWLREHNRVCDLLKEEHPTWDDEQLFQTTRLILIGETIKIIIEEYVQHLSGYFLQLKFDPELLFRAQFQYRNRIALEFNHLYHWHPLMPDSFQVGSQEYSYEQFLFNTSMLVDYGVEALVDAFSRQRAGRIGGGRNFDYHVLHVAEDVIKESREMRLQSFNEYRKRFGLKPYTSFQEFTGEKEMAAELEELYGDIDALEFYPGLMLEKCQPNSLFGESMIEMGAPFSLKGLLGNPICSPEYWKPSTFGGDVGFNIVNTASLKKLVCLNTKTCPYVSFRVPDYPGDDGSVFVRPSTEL
Assay type: functional
measure name: AC50

Examples with answers:
Challenge: Kindly state the measured AC50 obtained for NC(=O)CCC/N=C(\c1ccc(Cl)cc1)c1cc(F)ccc1O [PROGABIDE] with Prostaglandin G/H synthase 1 (Rattus norvegicus, UniProt Q63921).
Response given: > 10 µM

Challenge: Moving on to COc1cc2c(Nc3ccc(Br)cc3F)ncnc2cc1OCC1CCN(C)CC1 [VANDETANIB]
Response given: > 30 µM

Let us move to another entry and its AC50.
Challenge: Test system Prostaglandin G/H synthase 1 (Rattus norvegicus, UniProt Q63921); read-out AC50; what value for C=CC1=C(C(=O)O)N2C(=O)[C@@H](NC(=O)/C(=N\OCC(=O)O)c3csc(N)n3)[C@H]2SC1 [CEFIXIME] ?; also: assay procedure not described here
Response given: > 30 µM

====

List of AC50 tested on Mu-type opioid receptor (Homo sapiens, UniProt P35372). Also: assay procedure not described here.
Sequence (P35372 whole entry): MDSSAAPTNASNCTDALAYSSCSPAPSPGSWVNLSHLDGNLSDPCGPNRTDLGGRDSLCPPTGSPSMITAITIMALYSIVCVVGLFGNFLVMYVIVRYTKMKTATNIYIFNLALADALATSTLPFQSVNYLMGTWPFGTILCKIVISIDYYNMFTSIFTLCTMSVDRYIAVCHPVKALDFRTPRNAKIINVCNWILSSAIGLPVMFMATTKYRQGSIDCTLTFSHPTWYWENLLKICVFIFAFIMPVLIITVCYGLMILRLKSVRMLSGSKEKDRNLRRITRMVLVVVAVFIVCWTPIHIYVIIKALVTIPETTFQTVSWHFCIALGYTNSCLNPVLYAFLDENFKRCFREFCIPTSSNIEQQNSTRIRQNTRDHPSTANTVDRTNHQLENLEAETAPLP

Challenge: Please state recorded AC50 (tested on Mu-type opioid receptor (Homo sapiens, UniProt P35372)) of CC#CCn1c(N2CCC[C@@H](N)C2)nc2c1c(=O)n(Cc1nc(C)c3ccccc3n1)c(=O)n2C [LINAGLIPTIN]; also: assay procedure not described here
Response given: > 30 µM

Okay, here is my list. What is AC50 for each of these?
1. COc1ccc2c(c1)[C@]13CCCC[C@@H]1[C@H](C2)N(C)CC3 [DEXTROMETHORPHAN]
2. [H]/N=C(\N/C(=N/[H])NCCCCCCNC(=N)NC(=N)Nc1ccc(Cl)cc1)Nc1ccc(Cl)cc1 [CHLORHEXIDINE]
3. N[C@H](Cc1cc(I)c(Oc2cc(I)c(O)c(I)c2)c(I)c1)C(=O)O [DEXTROTHYROXINE]
4. CC(=O)OCC[N+](C)(C)C [ACETYLCHOLINE]
5. CC(C)C[C@H](CN)CC(=O)O [PREGABALIN]

Response given:
["2.7 µM", "13 µM", "> 30 µM", "> 10 µM", "> 30 µM"]

====

Here's what we have: AC50 numbers for Cannabinoid receptor 1 (Homo sapiens).

Consider the following illustrative entries.
Challenge: What is its AC50 for Cannabinoid receptor 1 (Homo sapiens)? Entry: COCCCOc1ccnc(C[S+]([O-])c2nc3ccccc3[nH]2)c1C (stereo not given) [RABEPRAZOLE]
Response given: > 10 µM

Challenge: Could you do the same for CCCC(C)(COC(N)=O)COC(=O)NC(C)C (stereo not given) [CARISOPRODOL] , please?
Response given: > 10 µM

I would be grateful if you could provide AC50 for each of the following entries.
1. NC(=O)c1ncn([C@@H]2O[C@H](CO)[C@@H](O)[C@H]2O)n1 [RIBAVIRIN]
2. CNCCCC1c2ccccc2C=Cc2ccccc21 [PROTRIPTYLINE]
3. CC(=O)S[C@@H]1CC2=CC(=O)CC[C@]2(C)[C@H]2CC[C@@]3(C)[C@@H](CC[C@@]34CCC(=O)O4)[C@H]12 [SPIRONOLACTONE]

Response given:
1: > 10 µM; 2: > 10 µM; 3: > 10 µM

// for each compound in input: emit AC50
1. NCCCC(O)(P(=O)(O)O)P(=O)(O)O [ALENDRONIC ACID]
2. [H]/N=C(\N/C(=N/[H])NCCCCCCNC(=N)NC(=N)Nc1ccc(Cl)cc1)Nc1ccc(Cl)cc1 [CHLORHEXIDINE]
3. COC(=O)N[C@@H](C)CNc1nccc(-c2cn(C(C)C)nc2-c2cc(Cl)cc(NS(C)(=O)=O)c2F)n1 [ENCORAFENIB]
4. C[C@H]1C[C@H]2[C@@H]3CCC4=CC(=O)C=C[C@]4(C)[C@@]3(Cl)[C@@H](O)C[C@]2(C)[C@@]1(O)C(=O)CO [BECLOMETHASONE]
5. C[C@]1(COc2ccc(N3CCC(Oc4ccc(OC(F)(F)F)cc4)CC3)cc2)Cn2cc([N+](=O)[O-])nc2O1

Response given:
["> 10 µM", "3.07 µM", "> 30 µM", "> 10 µM", "> 10 µM"]

====

system: Muscarinic acetylcholine receptor M1 (Homo sapiens); also: assay procedure not described here
Sequence (P11229 whole entry): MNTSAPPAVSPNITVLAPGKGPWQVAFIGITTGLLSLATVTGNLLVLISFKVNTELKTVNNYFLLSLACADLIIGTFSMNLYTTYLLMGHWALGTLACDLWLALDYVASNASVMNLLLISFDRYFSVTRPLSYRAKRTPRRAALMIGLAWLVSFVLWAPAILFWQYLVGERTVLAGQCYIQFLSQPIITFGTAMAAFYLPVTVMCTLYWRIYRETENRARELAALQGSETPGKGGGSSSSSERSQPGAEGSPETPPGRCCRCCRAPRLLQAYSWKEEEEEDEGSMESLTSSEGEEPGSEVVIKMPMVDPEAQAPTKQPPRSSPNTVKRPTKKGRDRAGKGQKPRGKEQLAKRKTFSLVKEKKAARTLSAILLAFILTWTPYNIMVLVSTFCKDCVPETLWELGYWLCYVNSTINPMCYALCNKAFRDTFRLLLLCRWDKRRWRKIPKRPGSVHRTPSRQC
Assay type: functional, cell-based
measure name: AC50

Challenge: Quick check: AC50 on Muscarinic acetylcholine receptor M1 (Homo sapiens), item Cc1cc(CCN2CCN(c3cccc(Cl)c3)CC2)n[nH]1 [MEPIPRAZOLE] ?
Response given: 26.3 µM

Fill in AC50 for each of the 6 compounds listed.
1. NC(=O)NS(=O)(=O)c1ccc(N)cc1 [SULFACARBAMIDE]
2. O=C(O)COc1nn(Cc2ccccc2)c2ccccc12
3. CN(C)C(=O)c1nc(CNC(=O)CN)n(-c2ccc(Cl)cc2C(=O)c2ccccc2Cl)n1
4. O=P(O)(O)C(Cl)(Cl)P(=O)(O)O
5. C[C@]1(COc2ccc(N3CCC(Oc4ccc(OC(F)(F)F)cc4)CC3)cc2)Cn2cc([N+](=O)[O-])nc2O1
6. Nc1ccncc1

Response given:
> 30 µM
> 30 µM
> 30 µM
> 30 µM
> 30 µM
> 3 µM

Challenge: API: value(readout= AC50, system= Muscarinic acetylcholine receptor M1 (Homo sapiens), query= CC[N+](C)(CC)CCOC(=O)C1c2ccccc2Oc2ccccc21 ); also: assay procedure not described here
Response given: 0.0287 µM

====

Thromboxane A2 receptor (Homo sapiens, UniProt P21731) measurements of AC50, listed per entry. Also: assay procedure not described here.
Sequence (P21731 whole entry): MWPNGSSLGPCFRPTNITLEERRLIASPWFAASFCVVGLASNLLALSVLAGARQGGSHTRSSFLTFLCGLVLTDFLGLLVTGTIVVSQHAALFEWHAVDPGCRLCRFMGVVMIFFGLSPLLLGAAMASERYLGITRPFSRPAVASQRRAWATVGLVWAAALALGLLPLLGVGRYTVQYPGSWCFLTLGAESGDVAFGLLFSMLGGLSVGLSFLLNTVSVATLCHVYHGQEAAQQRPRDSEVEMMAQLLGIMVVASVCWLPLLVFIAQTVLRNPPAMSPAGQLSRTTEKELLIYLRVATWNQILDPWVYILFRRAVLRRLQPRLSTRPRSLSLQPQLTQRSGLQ

The examples below pair each entry with its known result.
Challenge: Fill in the recorded AC50 for this molecule, with Thromboxane A2 receptor (Homo sapiens, UniProt P21731) as test system: CC(C)(C)NC[C@H](O)COc1nsnc1N1CCOCC1
Response given: > 30 µM

Challenge: Now the same for CC(=O)S[C@@H]1CC2=CC(=O)CC[C@]2(C)[C@H]2CC[C@@]3(C)[C@@H](CC[C@@]34CCC(=O)O4)[C@H]12
Response given: > 30 µM

Challenge: Also need CCCCNc1ccc(C(=O)OCCN(C)C)cc1 , thanks.
Response given: > 30 µM

Challenge: # repeat for CN1C[C@H](C(=O)N[C@]2(C)O[C@@]3(O)[C@@H]4CCCN4C(=O)[C@H](Cc4ccccc4)N3C2=O)C[C@@H]2c3cccc4[nH]cc(c34)C[C@H]21 [DIHYDROERGOTAMINE]
Response given: 13.7 µM

Challenge: And what about the molecule OCCN1CCN(CC/C=C2/c3ccccc3Sc3ccc(Cl)cc32)CC1 ?
Response given: > 10 µM

Hi! Can you tell me AC50 for each of these molecules?
1. C[C@]12CC[C@H](O)CC1=CC[C@@H]1[C@@H]2CC[C@]2(C)C(c3cccnc3)=CC[C@@H]12
2. CC(=O)O[C@H]1C[C@@H]2CC[C@@H]3[C@H](CC[C@@]4(C)[C@H]3C[C@H]([N+]3(C)CCCCC3)[C@@H]4OC(C)=O)[C@@]2(C)C[C@@H]1[N+]1(C)CCCCC1
3. Clc1ccc(C(Cn2ccnc2)OCc2ccc(Sc3ccccc3)cc2)c(Cl)c1 (stereo not drawn)
4. [H]/N=C(\N/C(=N/[H])NCCCCCCNC(=N)NC(=N)Nc1ccc(Cl)cc1)Nc1ccc(Cl)cc1
5. Cc1cccc(N(C)C(=S)Oc2ccc3ccccc3c2)c1 [TOLNAFTATE]

Response given:
1. > 30 µM
2. > 10 µM
3. > 30 µM
4. > 30 µM
5. > 10 µM

====

system: 5-hydroxytryptamine receptor 1A (Homo sapiens); also: assay procedure not described here
Sequence (P08908 whole entry): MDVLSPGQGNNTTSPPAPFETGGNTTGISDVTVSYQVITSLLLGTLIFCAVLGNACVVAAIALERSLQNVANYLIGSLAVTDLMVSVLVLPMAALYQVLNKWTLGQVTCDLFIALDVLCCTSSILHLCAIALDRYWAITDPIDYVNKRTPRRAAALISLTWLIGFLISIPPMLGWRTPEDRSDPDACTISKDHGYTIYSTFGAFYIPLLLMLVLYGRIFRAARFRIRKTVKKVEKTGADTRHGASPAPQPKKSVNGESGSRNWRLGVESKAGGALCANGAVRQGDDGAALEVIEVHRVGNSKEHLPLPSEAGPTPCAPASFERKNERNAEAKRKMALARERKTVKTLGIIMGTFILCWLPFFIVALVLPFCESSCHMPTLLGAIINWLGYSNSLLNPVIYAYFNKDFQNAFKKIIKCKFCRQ
Format: functional, cell-based
measure name: AC50

# count of solved cases: 5
Challenge: Form: Entry = C#C[C@]1(O)CC[C@H]2[C@@H]3CCC4=CC(=O)CCC4=C3C=C[C@@]21CC [GESTRINONE] | System = 5-hydroxytryptamine receptor 1A (Homo sapiens) | AC50 = ____; also: assay procedure not described here
Response given: > 30 µM

Challenge: Next molecule up: CN1C[C@H](C(=O)N[C@]2(C)O[C@@]3(O)[C@@H]4CCCN4C(=O)[C@H](Cc4ccccc4)N3C2=O)C[C@@H]2c3cccc4[nH]cc(c34)C[C@H]21 [DIHYDROERGOTAMINE]
Response given: 0.14 µM

Challenge: Field entry: [H]/N=C(\N/C(=N/[H])NCCCCCCNC(=N)NC(=N)Nc1ccc(Cl)cc1)Nc1ccc(Cl)cc1 [CHLORHEXIDINE]
Response given: > 30 µM

Challenge: Entry COCCCOc1ccnc(C[S+]([O-])c2nc3ccccc3[nH]2)c1C (stereo unspecified) [RABEPRAZOLE] please
Response given: > 10 µM

Challenge: Next molecule: COC(=O)N[C@@H](C)CNc1nccc(-c2cn(C(C)C)nc2-c2cc(Cl)cc(NS(C)(=O)=O)c2F)n1 [ENCORAFENIB]
Response given: > 30 µM

The record that follows has no AC50 shown yet.
Challenge: Find AC50 (5-hydroxytryptamine receptor 1A (Homo sapiens)) for the entry CC(=O)O[C@H]1C[C@@H]2CC[C@@H]3[C@H](CC[C@@]4(C)[C@H]3C[C@H]([N+]3(C)CCCCC3)[C@@H]4OC(C)=O)[C@@]2(C)C[C@@H]1[N+]1(C)CCCCC1 [PANCURONIUM]
Response given: > 10 µM
